- Tested on: A549
- assayRemarks: Cytotoxicity against human A549 cells assessed as reduction in cell viability preincubated for 24 hrs measured after 4 hrs by MTT assay
- Assay type: functional, cell-based
pIC50: −log10 of the molar value.
propertyLabel: pIC50

compound: Oc1ccccc1C(c1ccc(Cl)c(Cl)c1)N1CCN(c2ncnc3sc4c(c23)CCCC4)CC1 (stereo unspecified)
studyTarget: A549
numericResult: 4.94
--
compound: COc1cccc(C(c2ccc(C(F)(F)F)cc2)N2CCN(c3ncnc4sc5c(c34)CCCC5)CC2)c1O (stereo unspecified)
studyTarget: A549
numericResult: 5.14
--
compound: Oc1ccccc1C(c1ccc(F)c(Cl)c1)N1CCN(c2ncnc3sc4c(c23)CCCC4)CC1 (stereo unspecified)
studyTarget: A549
numericResult: 5.07
--
compound: Oc1ccccc1C(c1ccc(OC(F)(F)F)cc1)N1CCN(c2ncnc3sc4c(c23)CCCC4)CC1 (stereo unspecified)
studyTarget: A549
numericResult: 5.14
--
compound: Oc1ccccc1C(c1ccc(F)c(F)c1)N1CCN(c2ncnc3sc4c(c23)CCCC4)CC1 (stereo unspecified)
studyTarget: A549
numericResult: 5.06
--
compound: COc1cccc2c1C(=O)c1c(O)c3c(c(O)c1C2=O)C[C@@](O)(C(=O)CO)C[C@@H]3O[C@H]1C[C@H](N)[C@H](O)[C@H](C)O1
studyTarget: A549
numericResult: 5.26

This collection of values is drawn from ChEMBL document CHEMBL4732035.
